Origin of the recorded values: paper PMC5913336

Target: Fkh (Drosophila melanogaster, UniProt P14734 209-300)
Sequence: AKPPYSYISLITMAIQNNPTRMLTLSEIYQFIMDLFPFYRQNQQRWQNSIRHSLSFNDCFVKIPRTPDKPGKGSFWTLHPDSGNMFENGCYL
Assay: FP; 33 mM phosphate pH 7.0, 90 mM NaCl, 0.01% Tween 20, 0.1 mM DTT, 0.5% agarose; room temperature
Conditions: tags: N-GST (pGEX-6P-1, kept); dsDNA, one strand shown
quantity kind: binding signal

AGTTAAATGTTGA    102 Kd / Kd of best base at the position

Next sequence, binding signal to be filled in.
Write down binding signal measured for item "AGTTACATATTGA" 4.6 Kd / Kd of best base at the position

====

Target: Hkb (Drosophila melanogaster, UniProt Q9VN10 181-296)
Sequence: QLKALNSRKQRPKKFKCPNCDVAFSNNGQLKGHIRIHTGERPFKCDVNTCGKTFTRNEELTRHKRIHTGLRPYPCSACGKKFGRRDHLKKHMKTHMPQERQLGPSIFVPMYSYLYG
Assay: FP; 33 mM phosphate pH 7.0, 90 mM NaCl, 0.01% Tween 20, 0.1 mM DTT, 0.5% agarose; room temperature
Details: tags: N-GST (pGEX-6P-1, kept); dsDNA, one strand shown
quantity kind: binding signal

Answered examples (5):
AAGGGGCTTGAT    235 Kd / Kd of best base at the position
GAGGGGCGTGAT    3 Kd / Kd of best base at the position
AAGGAGCGTGAT    52 Kd / Kd of best base at the position
AAGGGGCCTGAT    164 Kd / Kd of best base at the position
AAGGGGCGCGAT    170 Kd / Kd of best base at the position

Write down binding signal measured for item "AAGTGGCGTGAT" 155 Kd / Kd of best base at the position

Write down binding signal measured for item "AAGGCGCGTGAT" 108 Kd / Kd of best base at the position

Write down binding signal measured for item "AAGGGGTGTGAT" 277 Kd / Kd of best base at the position

Write down binding signal measured for item "AAGGGGCGTGGT" 127 Kd / Kd of best base at the position

Write down binding signal measured for item "AAGGGGCGTTAT" 124 Kd / Kd of best base at the position

Write down binding signal measured for item "AAGGGGCGTAAT" 130 Kd / Kd of best base at the position

Write down binding signal measured for item "AAGGGGCATGAT" 318 Kd / Kd of best base at the position

====

Biological target: Gsc (Drosophila melanogaster, UniProt P54366 267-356)
Sequence (P54366 267-356): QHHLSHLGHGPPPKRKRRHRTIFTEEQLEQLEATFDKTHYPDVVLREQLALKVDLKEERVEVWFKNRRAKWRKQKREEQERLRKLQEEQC
Experiment: FP; 33 mM phosphate pH 7.0, 90 mM NaCl, 0.01% Tween 20, 0.1 mM DTT, 0.5% agarose; room temperature
Conditions: tags: N-GST (pGEX-6P-1, kept); dsDNA, one strand shown
quantity kind: binding signal

Write down binding signal measured for item "AATAAATCCGAT" 8.9 Kd / Kd of best base at the position

====

Target: Optix (Drosophila melanogaster, UniProt Q95RW8 139-229)
Sequence: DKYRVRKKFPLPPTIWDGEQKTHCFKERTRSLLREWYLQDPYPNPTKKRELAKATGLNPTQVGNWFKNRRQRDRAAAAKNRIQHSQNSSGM
Assay: FP; 33 mM phosphate pH 7.0, 90 mM NaCl, 0.01% Tween 20, 0.1 mM DTT, 0.5% agarose; room temperature
Settings: tags: N-GST (pGEX-6P-1, kept); dsDNA, one strand shown
quantity kind: binding signal

State binding signal (Optix (Drosophila melanogaster, UniProt Q95RW8 139-229)) of "AGAGTGATGGCT" . 127 Kd / Kd of best base at the position
